# Test system: P. multo 43719
# assay.details: Dilution antimicrobial susceptibility test (M07-A8), P. multocida
# Assay type: cell-based
# assay.conditions: Pasteurella multocida; antibacterial activity by dilution susceptibility test, isolate 43719
measurement.label: MIC (µg/mL)

smiles.data | recorded.value
CCCN(C(=O)CSC(C)=O)c1ccc(CC2=C(C(=O)O)N3C(=O)[C@@H](NC(=O)/C(=N\OC)c4csc(N)n4)[C@H]3SC2)cc1 | 0.25
CNS(=O)(=O)c1cc(CC2=C(C(=O)O)N3C(=O)[C@@H](NC(=O)/C(=N\OC)c4csc(N)n4)[C@H]3SC2)cc(OC)c1 | 0.015
CNS(=O)(=O)c1ccc(C)c(CC2=C(C(=O)O)N3C(=O)[C@@H](NC(=O)/C(=N\OC)c4csc(N)n4)[C@H]3SC2)c1 | 0.015
CNS(=O)(=O)c1cccc(CC2=C(C(=O)O)N3C(=O)[C@@H](NC(=O)/C(=N\OC)c4csc(N)n4)[C@H]3SC2)c1 | 0.125
CO/N=C(\C(=O)N[C@@H]1C(=O)N2C(C(=O)O)=C(Cc3cc(NC(=O)CSC(C)=O)ccc3C)CS[C@H]12)c1csc(N)n1 | 0.06
CO/N=C(\C(=O)N[C@@H]1C(=O)N2C(C(=O)O)=C(Cc3cc(NS(C)(=O)=O)cc(C)c3C)CS[C@H]12)c1csc(N)n1 | 0.03
CO/N=C(\C(=O)N[C@@H]1C(=O)N2C(C(=O)O)=C(Cc3cc(NS(C)(=O)=O)cc(OC)c3)CS[C@H]12)c1csc(N)n1 | 0.06
CO/N=C(\C(=O)N[C@@H]1C(=O)N2C(C(=O)O)=C(Cc3c(C)ccc(CSC(C)=O)c3C)CS[C@H]12)c1csc(N)n1 | 0.25
CO/N=C(\C(=O)N[C@@H]1C(=O)N2C(C(=O)O)=C(Cc3cc(C)cc(NS(C)(=O)=O)c3)CS[C@H]12)c1csc(N)n1 | 0.008
CO/N=C(\C(=O)N[C@@H]1C(=O)N2C(C(=O)O)=C(Cc3ccc(S(C)(=O)=O)cc3C)CS[C@H]12)c1csc(N)n1 | 0.03
CO/N=C(\C(=O)N[C@@H]1C(=O)N2C(C(=O)O)=C(Cc3cccc(NS(C)(=O)=O)c3)CS[C@H]12)c1csc(N)n1 | 0.03
CO/N=C(\C(=O)N[C@@H]1C(=O)N2C(C(=O)O)=C(Cc3cccc(NC(=O)CSC)c3)CS[C@H]12)c1csc(N)n1 | 0.03
CO/N=C(\C(=O)N[C@@H]1C(=O)N2C(C(=O)O)=C(Cc3cccc(N(C)C(=O)CSC(C)=O)c3)CS[C@H]12)c1csc(N)n1 | 0.06
CO/N=C(\C(=O)N[C@@H]1C(=O)N2C(C(=O)O)=C(Cc3cccc(S(=O)(=O)N(C)C)c3)CS[C@H]12)c1csc(N)n1 | 0.008
CO/N=C(\C(=O)N[C@@H]1C(=O)N2C(C(=O)O)=C(Cc3ccc(CSC(C)=O)cc3C)CS[C@H]12)c1csc(N)n1 | 0.06
CCN(CCSC(C)=O)S(=O)(=O)c1cccc(CC2=C(C(=O)O)N3C(=O)[C@@H](NC(=O)/C(=N\OC)c4csc(N)n4)[C@H]3SC2)c1 | 0.03

###

# Tested on: M. haemo 43411
# assay.details: Dilution antimicrobial susceptibility test (M07-A8), M. haemolytica
# Assay type: cell-based
# assay.conditions: Mannheimia haemolytica; antibacterial activity by dilution susceptibility test, isolate 43411
Property: MIC; scope: individual compounds

compound | MIC / µg/mL
CO/N=C(\C(=O)N[C@@H]1C(=O)N2C(C(=O)O)=C(Cc3cc(NS(C)(=O)=O)c(C)cc3C)CS[C@H]12)c1csc(N)n1 [Example 15] | 0.5
CO/N=C(\C(=O)N[C@@H]1C(=O)N2C(C(=O)O)=C(Cc3cccc(NC(=O)CSC(C)=O)c3C)CS[C@H]12)c1csc(N)n1 [Example 7] | 0.06
CO/N=C(\C(=O)N[C@@H]1C(=O)N2C(C(=O)O)=C(Cc3cc(NS(C)(=O)=O)cc(C)c3C)CS[C@H]12)c1csc(N)n1 [Example 14] | 0.06
CNS(=O)(=O)c1ccc(OC)c(CC2=C(C(=O)O)N3C(=O)[C@@H](NC(=O)/C(=N\OC)c4csc(N)n4)[C@H]3SC2)c1 [Example 22] | 0.125
CNS(=O)(=O)c1cccc(CC2=C(C(=O)O)N3C(=O)[C@@H](NC(=O)/C(=N\OC)c4csc(N)n4)[C@H]3SC2)c1 [Example 23] | 0.06
CO/N=C(\C(=O)N[C@@H]1C(=O)N2C(C(=O)O)=C(Cc3cccc(N(C)C(=O)CSC(C)=O)c3)CS[C@H]12)c1csc(N)n1 [Example 10] | 0.125
